The reader will find reported APOE RNA (% control) Spinal Cord values listed item by item below.
- System: human APOE RNA
- RUN_DESCRIPTION: Activity in APOE C57BL/6NTac-Apoeem7250 knock-in mice, single ICV bolus, 16 weeks (Example 12)
- Type: in vivo
- PARTICULARS: spinal cord; single ICV bolus 300 μg; 16 weeks post treatment; normalized to mouse Ppia
Strand notation (5' to 3'): a small letter for the sugar, then the base; units joined by * are phosphorothioate-linked, units joined directly phosphodiester-linked; [ ] holds rarer units or linkages, { } end groups; capitals alone tell only the bases. [ms] = mesyl phosphoramidate linkage; e = 2'-O-(2-methoxyethyl) (MOE); k = constrained ethyl (cEt); [5mC] = 5-methylcytosine; d = 2'-deoxy (DNA)
MEASURED_PARAMETER: APOE RNA (% control) Spinal Cord

| SUBSTANCE | MEASURED_PARAMETER | MEASURED |
| --- | --- | --- |
| 1693057: 5-10-5 MOE gapmer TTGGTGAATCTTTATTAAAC, linkages ssssszzzssssszsosss (antisense eT*eT*eG*eG*eT*dG[ms]dA[ms]dA[ms]dT*d[5mC]*dT*dT*dT*dA[ms]dT*eTeA*eA*eA*e[5mC]) [compound 1693057] | APOE RNA (% control) Spinal Cord | 101 % control |
| 1693066: 5-10-5 MOE gapmer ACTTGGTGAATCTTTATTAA, linkages sssssssszzsssssooss (antisense eA*e[5mC]*eT*eT*eG*dG*dT*dG*dA[ms]dA[ms]dT*d[5mC]*dT*dT*dT*eAeTeT*eA*eA) [compound 1693066] | APOE RNA (% control) Spinal Cord | 73 % control |
| 1778154: modified oligonucleotide complementary to human APOE RNA (e[5mC]*eT*eTeGeGeT*dG[ms]dA[ms]dA*dT*d[5mC]*dT*dT*dT*dA*dT*kTkAeA*eA; antisense) [compound 1778154] | APOE RNA (% control) Spinal Cord | 29 % control |
| 1778115: modified oligonucleotide complementary to human APOE RNA (eA*e[5mC]eTeTkGkG*dT*dG[ms]dA[ms]dA*dT*d[5mC]*dT*dT*dT*dA[ms]eTeT*eA*eA; antisense) [compound 1778115] | APOE RNA (% control) Spinal Cord | 28 % control |
| 1652902: 6-10-4 MOE gapmer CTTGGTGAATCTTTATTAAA, linkages sooooossssssssssoss (antisense e[5mC]*eTeTeGeGeTdG*dA*dA*dT*d[5mC]*dT*dT*dT*dA*dT*eTeA*eA*eA) [compound 1652902] | APOE RNA (% control) Spinal Cord | 60 % control |
| 1693084: 6-10-4 MOE gapmer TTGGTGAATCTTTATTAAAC, linkages ssssszzzszsszzsssss (eT*eT*eG*eG*eT*eG[ms]dA[ms]dA[ms]dT*d[5mC][ms]dT*dT*dT[ms]dA[ms]dT*dT*eA*eA*eA*e[5mC]) [compound 1693084] | APOE RNA (% control) Spinal Cord | 86 % control |
| 1693073: 5-10-5 MOE gapmer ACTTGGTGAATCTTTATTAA, linkages sssossszzzzzsssssss (eA*e[5mC]*eT*eTeG*dG*dT*dG[ms]dA[ms]dA[ms]dT[ms]d[5mC][ms]dT*dT*dT*eA*eT*eT*eA*eA) [compound 1693073] | APOE RNA (% control) Spinal Cord | 52 % control |
| 1693077: 6-10-4 MOE gapmer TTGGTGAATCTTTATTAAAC, linkages sosssszzszssszssoss (eT*eTeG*eG*eT*eG*dA[ms]dA[ms]dT*d[5mC][ms]dT*dT*dT*dA[ms]dT*dT*eAeA*eA*e[5mC]) [compound 1693077] | APOE RNA (% control) Spinal Cord | 76 % control |
| 1681005: 5-10-5 MOE gapmer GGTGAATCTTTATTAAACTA, linkages ssssszsssszzszsssss (antisense eG*eG*eT*eG*eA*dA[ms]dT*d[5mC]*dT*dT*dT[ms]dA[ms]dT*dT[ms]dA*eA*eA*e[5mC]*eT*eA) [compound 1681005] | APOE RNA (% control) Spinal Cord | 68 % control |
